target: Sialic acid-binding Ig-like lectin 9 (Homo sapiens) (UniProt Q9Y336); test: Hs-Siglec9 ALPHAscreen SOP 20170721; set-up: scale not given: direction of the effect not stated beside the values; details: 10 µM
Sequence (Q9Y336 whole entry): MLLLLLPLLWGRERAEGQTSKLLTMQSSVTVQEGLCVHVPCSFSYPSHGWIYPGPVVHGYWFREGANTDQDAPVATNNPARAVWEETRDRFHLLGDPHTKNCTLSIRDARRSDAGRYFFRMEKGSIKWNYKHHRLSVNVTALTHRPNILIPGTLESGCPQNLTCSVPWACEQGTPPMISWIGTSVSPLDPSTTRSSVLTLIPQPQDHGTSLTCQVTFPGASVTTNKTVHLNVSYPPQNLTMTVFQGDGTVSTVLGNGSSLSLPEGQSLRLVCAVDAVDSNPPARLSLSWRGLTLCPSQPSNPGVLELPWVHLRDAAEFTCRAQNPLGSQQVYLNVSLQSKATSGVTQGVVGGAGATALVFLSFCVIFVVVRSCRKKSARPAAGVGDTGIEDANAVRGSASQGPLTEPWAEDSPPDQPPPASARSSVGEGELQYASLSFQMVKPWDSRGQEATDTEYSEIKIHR
Measured metric: Percent Effect (%)

{"Compound": "CCc1noc(C(C)N2CCC(C(=O)Nc3cnn(CC)c3)CC2)n1 (configuration not stated)", "Unit abbrev": "%", "Recorded measurement": -3.56}
{"Compound": "CCOC(=O)c1sc2ccsc2c1CNC(=O)C(C)(C)C#N", "Unit abbrev": "%", "Recorded measurement": 1.84}
{"Compound": "c1csc(CN2Cc3nccn3CC(Cn3cncn3)C2)n1 (configuration not stated)", "Unit abbrev": "%", "Recorded measurement": 63.8}
{"Compound": "CCc1nc(CN(C)CC(c2cccs2)N2CCOCC2)no1 (configuration not stated)", "Unit abbrev": "%", "Recorded measurement": -3.75}
{"Compound": "CN(Cc1ccc(N2CCCCC2)cc1)Cc1noc(C(C)(C)C)n1", "Unit abbrev": "%", "Recorded measurement": 2.11}
{"Compound": "CC1CCN(S(=O)(=O)c2cccn(CC(=O)N3CCOCC3)c2=O)CC1", "Unit abbrev": "%", "Recorded measurement": 0.129}
{"Compound": "c1ccc(OCCCNCCn2cccn2)cc1", "Unit abbrev": "%", "Recorded measurement": 4.63}
{"Compound": "CCc1nccn1C1CCCN(C(=O)CCCNc2ncccn2)C1 (configuration not stated)", "Unit abbrev": "%", "Recorded measurement": 1.92}
{"Compound": "CC(=O)Nc1cccc(OCCNC(=O)N(C)Cc2ccco2)c1", "Unit abbrev": "%", "Recorded measurement": -2.99}
{"Compound": "Cc1ccc2c(c1)C1(CC2)CCN(c2nncs2)CC1", "Unit abbrev": "%", "Recorded measurement": 1.98}
{"Compound": "CC(C)N(CC(N)=O)Cc1csc(Cc2ccccc2)n1", "Unit abbrev": "%", "Recorded measurement": -4.46}
{"Compound": "O=C(CN1CCC(N2CCNC2=O)CC1)NCC(F)(F)F", "Unit abbrev": "%", "Recorded measurement": 3.47}
{"Compound": "Cn1cnc(S(=O)(=O)NCCCN2CCCCCC2)c1Cl", "Unit abbrev": "%", "Recorded measurement": 10.5}
{"Compound": "Cn1nnc2c1C(COCC1CC1)CN(C(=O)Cc1ccsc1)C2 (configuration not stated)", "Unit abbrev": "%", "Recorded measurement": 0.591}
{"Compound": "CC(C)Oc1ncccc1CNC(=O)N1CCC1c1ccccc1 (configuration not stated)", "Unit abbrev": "%", "Recorded measurement": 2.16}
{"Compound": "CCC1=N[C@@]2(CC[C@@H]3CN(CC(=O)N(C)C)C[C@@H]32)C(=O)N1CC1CC1", "Unit abbrev": "%", "Recorded measurement": -0.307}
{"Compound": "CN1CCOC(CNCc2cccc(OCC(F)(F)F)c2)C1 (configuration not stated)", "Unit abbrev": "%", "Recorded measurement": 12.1}
{"Compound": "NC(=O)C(CNC(=O)Cc1ccc(F)cc1)Cc1ccc(F)cc1 (configuration not stated)", "Unit abbrev": "%", "Recorded measurement": -3.44}
{"Compound": "CC(C)Cc1cc(C(=O)N2CCCC(n3cncn3)C2)[nH]n1 (configuration not stated)", "Unit abbrev": "%", "Recorded measurement": -0.206}
{"Compound": "CCOCCCNC(=O)c1cc(C)nc(N2CCCC2)n1", "Unit abbrev": "%", "Recorded measurement": 7.96}
{"Compound": "CCN1CC(C(=O)N2CCC(Oc3ccccc3C)CC2)CC1=O (configuration not stated)", "Unit abbrev": "%", "Recorded measurement": 3.46}
{"Compound": "CC(C)n1ccnc1C1CCN(Cc2ccc(Cl)s2)CC1", "Unit abbrev": "%", "Recorded measurement": 13.8}
{"Compound": "CSCC[C@H](N)C(=O)NCc1cc2n(n1)CCCN(C(=O)C1CCC1)C2", "Unit abbrev": "%", "Recorded measurement": 1.43}
{"Compound": "CSc1ccc(NC(=O)Nc2ccc3c(c2)N(S(C)(=O)=O)CC3)cc1", "Unit abbrev": "%", "Recorded measurement": 3.62}
{"Compound": "CCc1noc(CN2CCCC2c2noc(C3CC3)n2)n1 (configuration not stated)", "Unit abbrev": "%", "Recorded measurement": -6.88}
{"Compound": "Clc1ccc(CN2CCCC(Cn3cncn3)C2)c2ncccc12 (configuration not stated)", "Unit abbrev": "%", "Recorded measurement": 1.38}
{"Compound": "NC(=O)C1CN(C(=O)Nc2ccccc2N2CCCCCC2)CCO1 (configuration not stated)", "Unit abbrev": "%", "Recorded measurement": 9.74}
{"Compound": "NC(=O)c1nc(COc2ccc3c(c2)OCO3)no1", "Unit abbrev": "%", "Recorded measurement": 1.5}
{"Compound": "Cc1nc(CN(C)C2CCCN(c3cccnn3)C2)no1 (configuration not stated)", "Unit abbrev": "%", "Recorded measurement": 0.261}
{"Compound": "O=C(NCc1ccccc1)c1nnc2ccc(N3CCOCC3)cc2n1", "Unit abbrev": "%", "Recorded measurement": 2.19}
{"Compound": "Cc1cc(NC(=O)N2CCN(c3nc(C)c(C)s3)CC2)no1", "Unit abbrev": "%", "Recorded measurement": -1.24}
{"Compound": "CN(Cc1cn2c(n1)CN(c1ncc(F)cn1)CC2)Cc1ccco1", "Unit abbrev": "%", "Recorded measurement": -1.26}
{"Compound": "CCN(CC)C(=O)CCn1ncc2c(Cl)cccc21", "Unit abbrev": "%", "Recorded measurement": 7.06}
{"Compound": "O=C(Nc1ccc(F)cc1)N1C[C@H]2CC[C@@H]1CN(Cc1cccnc1)C2", "Unit abbrev": "%", "Recorded measurement": -2.61}
{"Compound": "COc1c(CNC2CCCc3ccccc32)c(C(C)C)nn1C (configuration not stated)", "Unit abbrev": "%", "Recorded measurement": 17.5}
{"Compound": "COc1ccc(CN2CC[C@H](NC(C)=O)[C@@H](O)CC2)c(OC)c1", "Unit abbrev": "%", "Recorded measurement": 3.43}
{"Compound": "O=C(C1CCOCC1)N1CCO[C@H]2[C@@H](OCc3ccncc3)CC[C@@H]21", "Unit abbrev": "%", "Recorded measurement": 21.1}
{"Compound": "CN(C)c1nc2c(c(=O)[nH]1)CCN(C(=O)c1cccc3nccnc13)C2", "Unit abbrev": "%", "Recorded measurement": 4.82}
{"Compound": "CSc1ncccc1C(=O)NCc1ccc(CS(=O)(=O)NC(C)C)cc1", "Unit abbrev": "%", "Recorded measurement": -0.901}
{"Compound": "N#CC(Sc1nnnn1C1CCOCC1)C1CCCCC1 (configuration not stated)", "Unit abbrev": "%", "Recorded measurement": 9.31}
{"Compound": "N#Cc1ccc(C2CC(=O)Nc3c2cnn3C2CCCC2)cc1 (configuration not stated)", "Unit abbrev": "%", "Recorded measurement": 17.4}
{"Compound": "CCNC(=O)c1nnc2ccc(N3CCOCC3)cc2n1", "Unit abbrev": "%", "Recorded measurement": 3.63}
{"Compound": "Cn1cc(CN(Cc2ccccc2)CC(O)c2cccs2)cn1 (configuration not stated)", "Unit abbrev": "%", "Recorded measurement": 9.64}
{"Compound": "Cc1oncc1C(=O)N1CCC2(CC1)CC(c1ccccc1)C(=O)N2C (configuration not stated)", "Unit abbrev": "%", "Recorded measurement": 1.07}
{"Compound": "Cc1ncsc1CN1C[C@H](C(=O)N2CCCO2)[C@@H]2CCO[C@@H]2C1", "Unit abbrev": "%", "Recorded measurement": 10.2}
{"Compound": "CCc1nc(C2CCCN(C(=O)c3cccc4cn[nH]c34)C2)no1 (configuration not stated)", "Unit abbrev": "%", "Recorded measurement": 7.35}
{"Compound": "CC(C)n1cc(CN2CCCN(C(=O)c3ccc[nH]3)CC2)cn1", "Unit abbrev": "%", "Recorded measurement": -5.21}

Values compiled from ChEMBL document CHEMBL3988442.
